- assay-target: Nuclear receptor subfamily 1 group I member 3 (Homo sapiens) (UniProt Q14994)
- Sequence (Q14994 whole entry, looked up): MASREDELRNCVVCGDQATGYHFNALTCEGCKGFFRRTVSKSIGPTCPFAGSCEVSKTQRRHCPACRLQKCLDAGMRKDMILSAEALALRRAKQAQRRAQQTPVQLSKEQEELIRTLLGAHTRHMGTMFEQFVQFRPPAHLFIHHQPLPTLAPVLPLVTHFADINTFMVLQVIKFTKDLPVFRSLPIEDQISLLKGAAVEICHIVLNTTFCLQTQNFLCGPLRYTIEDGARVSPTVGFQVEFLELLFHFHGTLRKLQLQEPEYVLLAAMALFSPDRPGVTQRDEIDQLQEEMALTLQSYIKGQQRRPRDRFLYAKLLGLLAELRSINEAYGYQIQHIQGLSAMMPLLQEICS
- experiment-notes: qHTS for Constitutive Androstane Receptor (CAR) Antagonist screened against the NCATS CANVASS Library (AID 1347372)
- assay-conditions: HepG2-hCAR-CYP2B6 luciferase, CITCO-stimulated antagonist mode; series mostly up to 46.1 µM
Records with an inconclusive call do not appear. Calls of active or inactive are those of the source. The call rests on the fitted dose curve; in most records, active means well fitted inhibition curve with a large enough effect; inconclusive means small, poorly fitted or top-dose-only effect; inactive means no such curve, though single readings can be large or run the other way.
Your reply should match one of these outcome classes. active, inactive

compound: CO[C@H]1[C@H](O[C@H]2CC[C@]3(C=O)[C@H]4CC[C@]5(C)[C@@H](C6=CC(=O)OC6)CC[C@]5(O)[C@@H]4CC[C@]3(O)C2)O[C@H](C)[C@H](O)[C@@H]1OC
assay-target: Nuclear receptor subfamily 1 group I member 3 (Homo sapiens) (UniProt Q14994)
class-name: active

compound: C/C=C1/CN2CC[C@@]34c5ccccc5N(C)[C@@H]3[C@@H]2C[C@@H]1[C@H]4C(=O)OC
assay-target: Nuclear receptor subfamily 1 group I member 3 (Homo sapiens) (UniProt Q14994)
class-name: inactive

compound: C=CC(C)(C)[C@@]12C[C@H]3C(=O)N/C(=C\c4cnc[nH]4)C(=O)N3[C@@H]1Nc1ccccc12
assay-target: Nuclear receptor subfamily 1 group I member 3 (Homo sapiens) (UniProt Q14994)
class-name: inactive

compound: C1=C2CCCN[C@H]2C2CC1[C@H]1CCCCN1C2 (some centres not stated)
assay-target: Nuclear receptor subfamily 1 group I member 3 (Homo sapiens) (UniProt Q14994)
class-name: inactive

compound: CC(C)CC1C(=O)O[C@H](C(C)C)C(=O)N(C)C(CC(C)C)C(=O)O[C@@H](C(C)C)C(=O)N(C)C(CC(C)C)C(=O)O[C@H](C(C)C)C(=O)N(C)C(CC(C)C)C(=O)O[C@@H](C(C)C)C(=O)N1C (some centres not stated)
assay-target: Nuclear receptor subfamily 1 group I member 3 (Homo sapiens) (UniProt Q14994)
class-name: active

compound: C[N+](C)(C)CCc1c[nH]c2ccccc12
assay-target: Nuclear receptor subfamily 1 group I member 3 (Homo sapiens) (UniProt Q14994)
class-name: inactive

Ask | How did this test come out for C[C@]12CC(O)C3[C@@H](CC[C@@H]4C[C@@H](O)CC[C@]34CO)[C@@]1(O)CC[C@@H]2C1=CC(=O)OC1 (some centres not stated) ?
Reply | active

Ask | Which outcome was entered for the compound CCCC[C@@H]1CC[C@H]2CCCC(CCCO)N12 (some centres not stated) in this test?
Reply | inactive

Ask | Recorded test call requested for C[C@]12CCC3[C@@H](CC[C@@H]4C[C@@H](O)CC[C@]34CO)[C@@]1(O)CC[C@@H]2C1=CC(=O)OC1 (some centres not stated)
Reply | active

Ask | Test call for this compound, please: `CO[C@H]([C@@H](C)[C@H]1O[C@]1(C)C[C@H](C)/C=C/C=C(\C)[C@H]1O[C@@H](CC(=O)O)CC[C@@H]1C)[C@@H](C)O`
Reply | inactive

Ask | Name the outcome recorded for `C=CC(C)(C)[C@@]12C[C@H]3C(=O)N/C(=C/c4cnc[nH]4)C(=O)N3[C@@H]1Nc1ccccc12` in the assay.
Reply | active

Ask | Record request — test call for `C/C=C(\C)C(=O)O[C@@H]1[C@@H](O)[C@@H]2O[C@H]3[C@H](O[C@@H](CCCCC)CCCCCCC(=O)CCC(=O)OC[C@@H](O2)[C@H]1OC(=O)/C=C/c1ccccc1)O[C@H](C)[C@H](OC(C)=O)[C@@H]3O`
Reply | active

---

- experiment-notes: Cellular Toxicity (caspase-3) N2a (AID 665);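 further: compound exposure lasted 16 h at 37 °C before readout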
- assay-conditions: N2a cells, luminescence, normalized: DMSO 0%, 10 µM staurosporine 100%; at 92.2 µM (top of the series)
Calls of active or inactive are those of the source. The call rests on the fitted dose curve; in most records, active means well fitted activation curve with a large enough effect; inconclusive means small, poorly fitted or top-dose-only effect; inactive means flat fitted curve, though single readings scatter.
experimental-endpoint: caspase-3 activation

Look over these answered cases.
chem-smiles: CCCSC(=O)Cl
experimental-endpoint: caspase-3 activation
measured: -1.31% (inactive)
--
chem-smiles: C=CCc1ccc2c(c1)OCO2
experimental-endpoint: caspase-3 activation
measured: -4.3% (inactive)
--
chem-smiles: Clc1cccc(C(Cl)(Cl)Cl)n1
experimental-endpoint: caspase-3 activation
measured: -0.536% (inactive)

Ask | Specify caspase-3 activation for `CCN(CC)c1ccccc1` and stop.
Reply | -1.42% (inactive)

Ask | Determine its reported caspase-3 activation: `CCOCN(C(=O)CCl)c1c(C)cccc1CC`
Reply | -0.109% (inactive)

Ask | Give the measured caspase-3 activation for `CC(Cl)Cl`
Reply | -4.66% (inactive)

---

- assay-target: Cytochrome P450 3A4 (Homo sapiens)
- experiment-notes: qHTS Assay for Activators of Cytochrome P450 3A4 (AID 885); further: nearly all actives have a fitted effect of over 65% in size
- assay-conditions: recombinant CYP3A4, Luciferin-PPXE luminescence, 60 min; series mostly up to 57.1 µM
Activity calls are given as the source filed them. The call rests on the fitted dose curve; in most records, active means well fitted activation curve with a large enough effect; inconclusive means small, poorly fitted or top-dose-only effect; inactive means no such curve, though single readings can be large or run the other way.
Entry note: the call must match one of yes (active), no (inactive)

Sample answers from the record:
compound: O=C(Oc1ccccc1)N1CCC2(CC1)CN(C(c1ccccc1)c1ccccc1)C2
class-name: yes
//
compound: COc1cc2c(cc1O)CC1c3c(cc(O)c(OC)c3-2)CCN1C (configuration not stated)
class-name: no
//
compound: COc1cc2c(cc1O)C[C@H]1c3c(cc(O)c(OC)c3-2)CCN1C
class-name: no
//
compound: CC(C)(c1ccccc1)c1ccc(O)cc1
class-name: no
//
compound: O=C(Oc1ccccc1)N1CCC2(CCCN(Cc3nccs3)C2)CC1
class-name: no

Ask | Look up the recorded call for `CC(C)NC(=O)N1CCC2(CC1)CCN(C(=O)Oc1ccccc1)CC2` in this test.
Reply | yes

Ask | Please let me know the test result on file for `N#Cc1ccc(CN2CC[C@@]3(CCCNC3)C2)cc1` .
Reply | no

Ask | Can you look up the reported call for `COc1ccccc1CN1CC[C@@]2(CCCN(C(=O)Oc3ccccc3)C2)C1` for me?
Reply | no

Ask | Please share the test call associated with `NCC(=O)c1ccccc1` .
Reply | no

Ask | Hey, what did the test say about `C=C1C/C(=C/C)C(=O)O[C@@H]2CCN3CC=C(COC(=O)[C@]1(C)O)[C@@H]23` ?
Reply | no

Ask | Can you look up the reported call for `CN1CC[C@@]2(CCCN(C(=O)c3ccncc3)C2)C1` for me?
Reply | no

Ask | Per the assay record, what outcome was assigned to `N#Cc1cccc(NC(=O)N2CC[C@@]3(CCCN(C(=O)Oc4ccccc4)C3)C2)c1` ?
Reply | no

Ask | Dear all, I need the recorded test outcome for `NCC#Cc1ccccc1` , thank you.
Reply | no

Ask | Name the outcome recorded for `C[C@@]12CC[C@H]3[C@@H](CC[C@@H]4C[C@H]5S[C@H]5C[C@]43C)[C@H]1CC[C@H]2O` in the assay.
Reply | no

Ask | Which outcome did this test record for the compound `CCOP(=S)(OCC)Oc1ccc([N+](=O)[O-])cc1` ?
Reply | no

Ask | For `Clc1cccc(C(Cl)(Cl)Cl)n1` , what call appears in the results of this test?
Reply | no

Ask | Which result was noted for this compound in the test: `O=C(c1ccncc1)N1CCC2(CC1)CN(Cc1ccccc1)C2`
Reply | no

Ask | Hi, do you know how `c1cnc(N2CCC3(CCNCC3)CC2)nc1` came out in this test?
Reply | no

Ask | // param item: CC1=CCCC2C1(C)CCC(C)C2(C)CC/C(C)=C/C[n+]1cn(C)c2c(N)ncnc21 (configuration not stated) ; yields the recorded call
Reply | no

Ask | Recorded test call requested for `O=C(Nc1ccccc1)N1CC2(CCN(C(=O)Oc3ccccc3)CC2)C1`
Reply | yes

Ask | Recorded test outcome, item CNC1[C@@H](O)C(OC2C(N)C[C@H](N)[C@@H](O[C@@H]3OC(C(C)O)C(O)C(O)C3N)C2O)OC[C@]1(C)O (some centres not stated)
Reply | no

---

- Test system: P93_24
- experiment-notes: qHTS profiling for inhibitors of Plasmodium falciparum proliferation (AID 504749); further: nearly all actives have a fitted effect of over 60% in size
- assay-conditions: P. falciparum in erythrocytes, SYBR Green DNA, 72 h; series mostly up to 28.7 µM
Inconclusive results are not listed. Calls of active or inactive are those of the source. The call rests on the fitted dose curve; in most records, active means well fitted inhibition curve with a large enough effect; inconclusive means small, poorly fitted or top-dose-only effect; inactive means flat fitted curve, though single readings scatter.
The categories you may choose from are True = active, False = inactive

Worked examples follow.
compound: CC[C@]1(c2cccc(O)c2)CCCCN(C)C1
class-name: False
--
compound: C[C@]12CC[C@H](OS(=O)(=O)O)CC1=CCC1C2CC[C@]2(C)C(=O)CC[C@@H]12 (stereo partly drawn)
class-name: False

Next item in the queue.
Ask | Any idea what this test logged for O=[As]O[As]=O (stereo not drawn) ?
Reply | True

---

caspase-3 activation overview
- experiment-notes: Cellular Toxicity (caspase-3) Renal Proximal Tubule (AID 667);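 further: cells exposed to compound for 16 hours at 37 °C before detection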
- assay-conditions: renal proximal tubule cells; at 91.7 µM (top of the series), primary cells freshly taken from rat, solvent-only wells 0%, staurosporine 100% unless noted
Calls of active or inactive are those of the source. The call rests on the fitted dose curve; in most records, active means well fitted activation curve with a large enough effect; inconclusive means small, poorly fitted or top-dose-only effect, or effect the other way; inactive means flat fitted curve, though single readings scatter.

Worked examples, 5 compounds total:
chem-smiles: BrCCBr
caspase-3 activation: -15.1% (inactive)
--
chem-smiles: Nc1ccccc1Cl
caspase-3 activation: 2.73% (inactive)
--
chem-smiles: C/C=C/c1ccc2c(c1)OCO2
caspase-3 activation: -4.01% [at 91.7 µM] (inactive)
--
chem-smiles: Nc1c(Cl)c(Cl)nc(C(=O)O)c1Cl
caspase-3 activation: -0.472% (inactive)
--
chem-smiles: COc1ccc(C=O)cc1OC
caspase-3 activation: -4.32% (inactive)

Ask | For the compound `C=CCc1ccc(OC)cc1` , give its reported caspase-3 activation.
Reply | 1.25% [at 91.7 µM] (inactive)

Ask | Note down caspase-3 activation recorded for `Clc1nc(Cl)nc(Cl)n1`
Reply | 1.34% (inactive)

Ask | Using known records, supply caspase-3 activation for `CCSC(=O)Cl`
Reply | 8.48% (inactive)

Ask | Provide one value: measured caspase-3 activation of `CCN(CC)c1ccccc1`
Reply | 2.98% (inactive)
